The reported measurements were obtained from ChEMBL document CHEMBL4052615.

# tgt: UniProt P41594
# Sequence (P41594 21-1212 limits assumed): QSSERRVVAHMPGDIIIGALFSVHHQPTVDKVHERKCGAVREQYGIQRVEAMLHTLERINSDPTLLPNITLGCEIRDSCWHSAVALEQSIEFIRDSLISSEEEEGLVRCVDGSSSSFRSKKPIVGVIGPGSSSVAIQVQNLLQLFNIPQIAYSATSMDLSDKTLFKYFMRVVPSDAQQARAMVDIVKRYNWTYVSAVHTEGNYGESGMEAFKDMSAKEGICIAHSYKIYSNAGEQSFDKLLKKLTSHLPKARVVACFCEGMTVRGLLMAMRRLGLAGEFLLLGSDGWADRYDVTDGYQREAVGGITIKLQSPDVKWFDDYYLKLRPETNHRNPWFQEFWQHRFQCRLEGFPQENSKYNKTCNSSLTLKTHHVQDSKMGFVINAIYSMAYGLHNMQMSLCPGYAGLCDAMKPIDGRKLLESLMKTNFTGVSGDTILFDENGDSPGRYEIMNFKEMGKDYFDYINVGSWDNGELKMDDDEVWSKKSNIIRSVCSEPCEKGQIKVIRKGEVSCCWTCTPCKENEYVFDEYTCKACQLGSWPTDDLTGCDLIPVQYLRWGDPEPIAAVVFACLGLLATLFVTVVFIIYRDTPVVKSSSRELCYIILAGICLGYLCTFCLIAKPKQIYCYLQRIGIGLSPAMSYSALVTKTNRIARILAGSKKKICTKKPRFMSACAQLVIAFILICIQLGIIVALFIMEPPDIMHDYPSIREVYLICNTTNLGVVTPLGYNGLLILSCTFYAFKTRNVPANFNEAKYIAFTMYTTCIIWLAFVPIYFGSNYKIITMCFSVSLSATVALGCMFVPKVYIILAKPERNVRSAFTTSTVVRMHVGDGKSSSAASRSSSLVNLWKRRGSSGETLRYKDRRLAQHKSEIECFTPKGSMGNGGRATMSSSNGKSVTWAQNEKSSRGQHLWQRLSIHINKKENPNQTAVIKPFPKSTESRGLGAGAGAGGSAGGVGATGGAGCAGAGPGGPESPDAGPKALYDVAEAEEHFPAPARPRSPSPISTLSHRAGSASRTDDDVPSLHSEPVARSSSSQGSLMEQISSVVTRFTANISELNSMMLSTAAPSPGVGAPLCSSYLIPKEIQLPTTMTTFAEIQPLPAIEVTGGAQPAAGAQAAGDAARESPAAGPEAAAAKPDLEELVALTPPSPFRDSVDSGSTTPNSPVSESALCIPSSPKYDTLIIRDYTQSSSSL
# measurement.description: Displacement of [3H]M-MPEP from mGluR5 (unknown origin) at 1 uM measured after 60 mins relative to control
quantity: inhibition (%)

As a guide, the following entries are already answered.
{"given.smiles": "CCN(CC)c1c(S(=O)(=O)c2ccc(C)cc2)cnc2ccccc12", "number": 78.3}
{"given.smiles": "Cc1ccc2ncc(S(=O)(=O)c3ccc(F)c(Cl)c3)c(N3CCOCC3)c2c1", "number": 73}
{"given.smiles": "COc1ccc(S(=O)(=O)c2cnc3ccc(F)cc3c2N2CCC(C)CC2)cc1Cl", "number": 82}
{"given.smiles": "COc1ccc(S(=O)(=O)c2cnc3cc(F)ccc3c2N2CCOCC2)cc1OC", "number": 5}
{"given.smiles": "N#Cc1cccc(S(=O)(=O)c2cnc3cc(Cl)ccc3c2N2CCOCC2)c1", "number": 73}
{"given.smiles": "Cc1ccc2ncc(S(=O)(=O)c3ccc(Cl)cc3)c(N3CCC(C)CC3)c2c1", "number": 79}

P. COc1ccc2ncc(S(=O)(=O)c3ccc(F)cc3)c(N3CCC(C)CC3)c2c1
Q. Cc1cc(C)cc(S(=O)(=O)c2cnc3ccc(C)cc3c2N2CCOCC2)c1
R. O=S(=O)(c1ccccc1)c1cnc2ccccc2c1N1CCCCCC1
S. COc1ccc2ncc(S(=O)(=O)c3cc(C)cc(C)c3)c(N3CCOCC3)c2c1
Given 4 compounds, produce a descending ranking by inhibition. Hello, could you send the labels back in the order asked? Thank you.
R, Q, P, S
(R: 79.9%, Q: 47%, P: 27%, S: 11%)

a. Cc1ccc(S(=O)(=O)c2cnc3ccc(Cl)cc3c2N2CCOCC2)cc1F
b. COc1cccc(S(=O)(=O)c2cnc3cc(F)ccc3c2N2CCOCC2)c1
c. O=S(=O)(c1ccc(F)c(F)c1)c1cnc2ccc(F)cc2c1N1CCOCC1
// ascending sort on recorded inhibition Hello, could you send the labels back in the order asked? Thank you.
c, a, b
(c: 10%, a: 23%, b: 72%)

I. CC1CCN(c2c(S(=O)(=O)c3cccc(C#N)c3)cnc3cc(Cl)ccc23)CC1
II. COc1ccc2ncc(S(=O)(=O)c3ccccc3)c(N3CCC(C)CC3)c2c1
Lab log: flag the item ( I or II ) with the smaller inhibition figure. Pick one; state its label.
II
(II: 64%, I: 94%)
